Reference source for all entries: patent US7026443

binding affinity ratio (IC50 of standard peptide / IC50 of test peptide) overview
study system: HLA-A*6801 (human)
assay info: competition with 125I-labelled standard peptide for purified HLA, gel filtration
readout name: binding affinity ratio (IC50 of standard peptide / IC50 of test peptide)

# binder, number
rows = [
    ("YAVCDKCLK (modifications not checked)", 0.012),
    ("TTLEQQYNK (modifications not checked)", 0.3),
    ("LIRCINCQK (modifications not checked)", 0.0021),
    ("CMSCCRSSR (modifications not checked)", 0.0011),
]
